Recorded residual activity by entry
Target: MAPK10 (human)
Assay: radiometric filter-binding kinase assay
Settings: compound 10.0 µM
Measured endpoint: residual activity (%)

[
  {
    "Molecule": "O=S(=O)(c1ccc(F)c2nonc12)N1CCN(c2ncc(C(F)(F)F)cc2Cl)CC1",
    "Reading": 93
  },
  {
    "Molecule": "N#Cc1c(O)c2c(-c3ccc(-c4ccccc4O)cc3)csc2[nH]c1=O",
    "Reading": 75
  },
  {
    "Molecule": "Cc1ccc(-c2ccc3c(ccc4sc5c(c43)NC[C@@H](C)NC5=O)n2)cn1",
    "Reading": 102
  },
  {
    "Molecule": "O=c1c(O)c(-c2ccc(O)c(O)c2)oc2cc(O)c(O)c(O)c12",
    "Reading": 89
  },
  {
    "Molecule": "Cc1ccc(Sc2cnc(Nc3cccc(Br)n3)s2)cc1C(=O)N1CCN(C(=O)CN)CC1",
    "Reading": 54
  },
  {
    "Molecule": "CN1C(=O)[C@@H](Cc2c[nH]c3ccccc23)NC1=S",
    "Reading": 110
  },
  {
    "Molecule": "CC(C)C[C@H](NC(=O)CNC(=O)c1cc(Cl)ccc1Cl)B1OC(=O)CC(CC(=O)O)(C(=O)O)O1 (stereo partly specified)",
    "Reading": 91
  },
  {
    "Molecule": "CNc1nc(-c2ccc3c(N)n[nH]c3c2)cc(N2C[C@@H](C(=O)NC3CCCCC3)CC[C@H]2C)n1",
    "Reading": 97
  },
  {
    "Molecule": "Cc1ccc(=O)n(-c2ccccc2)c1",
    "Reading": 86
  },
  {
    "Molecule": "Cc1nc(-c2ccc(OCC(C)C)c(C#N)c2)sc1C(=O)O",
    "Reading": 92
  },
  {
    "Molecule": "COc1ccc2c(c1)c1c3c(c4c5ccccc5n(C)c4c1n2CC(O)CN(C)C)C(=O)NC3=O (stereo unspecified)",
    "Reading": 87
  },
  {
    "Molecule": "FC(F)(F)c1ccc(-c2ccc(Oc3cncc4sc(-c5nn[nH]n5)cc34)cc2)cc1",
    "Reading": 96
  },
  {
    "Molecule": "Cc1ccc2c(c1)C(=O)[C@@]1(O)CCN(c3ccccc3)C1=N2",
    "Reading": 99
  },
  {
    "Molecule": "NC1(c2ccc(-c3nc4ccn5c(=O)[nH]nc5c4cc3-c3ccccc3)cc2)CCC1",
    "Reading": 84
  },
  {
    "Molecule": "Cc1cccc(Nc2nn(C)c3ncnc(N)c23)c1",
    "Reading": 102
  },
  {
    "Molecule": "COc1cc(C(=O)N2CCOCC2)c(F)cc1Nc1ncc(C(F)(F)F)c(NC2CC2)n1",
    "Reading": 48
  }
]

* * *

Biological target: PAK4 (human) (UniProt O96013)
Sequence (O96013 whole entry, looked up): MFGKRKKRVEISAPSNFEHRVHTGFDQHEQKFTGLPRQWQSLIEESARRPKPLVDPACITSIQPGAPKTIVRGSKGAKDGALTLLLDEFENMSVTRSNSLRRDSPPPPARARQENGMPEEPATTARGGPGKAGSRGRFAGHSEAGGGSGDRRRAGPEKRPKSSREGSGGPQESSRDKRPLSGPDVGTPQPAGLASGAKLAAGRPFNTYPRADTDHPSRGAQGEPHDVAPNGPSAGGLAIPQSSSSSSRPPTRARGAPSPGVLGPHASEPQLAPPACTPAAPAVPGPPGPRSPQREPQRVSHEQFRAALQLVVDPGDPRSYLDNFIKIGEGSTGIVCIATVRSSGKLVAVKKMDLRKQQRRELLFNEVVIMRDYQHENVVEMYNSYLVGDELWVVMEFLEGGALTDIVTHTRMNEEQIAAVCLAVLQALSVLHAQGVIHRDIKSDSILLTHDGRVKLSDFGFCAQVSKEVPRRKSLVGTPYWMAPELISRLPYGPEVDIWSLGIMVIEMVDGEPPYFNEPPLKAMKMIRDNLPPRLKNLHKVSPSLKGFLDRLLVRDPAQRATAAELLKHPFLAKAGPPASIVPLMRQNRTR
Assay: radiometric filter-binding kinase assay
Conditions: compound 10.0 µM
Below, each entry is listed with its recorded residual activity.

[
  {
    "Smiles structure": "CCn1c(-c2nonc2N)nc2cncc(CNC3CCNCC3)c21",
    "System": "PAK4 (human) (UniProt O96013)",
    "residual activity, %": 79
  },
  {
    "Smiles structure": "Cc1ccc(-c2ccc3c(ccc4sc5c(c43)NC[C@@H](C)NC5=O)n2)cn1",
    "System": "PAK4 (human) (UniProt O96013)",
    "residual activity, %": 82
  },
  {
    "Smiles structure": "Oc1ccc(/C=C/c2cc(O)cc(O)c2)cc1",
    "System": "PAK4 (human) (UniProt O96013)",
    "residual activity, %": 80
  }
]

Origin of values: the kinase profiling compilation of Christmann-Franck et al. (2016)
